Data origin, for the record: patent US9079866B2

Biological target: human FLAP (Homo sapiens (Human), UniProt P20292)
Sequence (P20292 whole entry): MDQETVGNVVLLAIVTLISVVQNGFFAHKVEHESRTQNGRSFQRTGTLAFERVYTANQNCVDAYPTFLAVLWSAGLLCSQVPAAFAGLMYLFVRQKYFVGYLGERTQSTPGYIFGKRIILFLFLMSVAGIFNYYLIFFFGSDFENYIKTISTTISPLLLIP
Experiment: FLAP binding assay (HTRF format)
Settings: human FLAP wild type, HTRF format; average of two plates, duplicates
Where a name gives a salt, the structure may show the parent alone.
endpointName: log10 of Ki (log10 of the value in nM)

compound: C[C@H](CO)NS(=O)(=O)c1ccccc1-c1ccc(-c2cnc3[nH]ccc3c2)c(F)c1 [Example 363]
log10 of Ki: 0.00
//
compound: CC[C@H](CO)NS(=O)(=O)c1ccccc1-c1ccc(-c2cnc(N)cn2)c(F)c1 [Example 86]
log10 of Ki: 0.48
//
compound: Nc1cnc(-c2ccc(-c3ccccc3S(=O)(=O)C3CCS(=O)(=O)CC3)cc2F)cn1 [Example 241]
log10 of Ki: 1.18
//
compound: Cc1cccc(-c2ccc(-c3cnc(N)nc3)c(F)c2)c1S(=O)(=O)NC(C)(C)C [Example 287, trifluoroacetic acid salt]
log10 of Ki: 0.95
//
compound: O=S(=O)(c1ccccc1-c1ccc(-c2cnc3[nH]ccc3n2)c(F)c1)N1CCCCC1 [Example 374]
log10 of Ki: 0.00
//
compound: N#CCCN(C1CC1)S(=O)(=O)c1ccccc1-c1ccc(-c2cnc(N)nc2)c(F)c1 [Example 249]
log10 of Ki: 1.77
//
compound: CC1CN(S(=O)(=O)c2ccccc2-c2ccc(-c3cnc(N)cn3)c(F)c2)CC(C)N1 (racemic) [Example 62]
log10 of Ki: 2.15
